experiment: Cytotoxicity against human C8166 cells assessed as inhibition of cell viability after 3 days by MTT assay; type: cell-based
Criterion: CC50 at 72 h strictly under 90 µg/mL. Met: 1. Not met: 0.

The following compounds have reported results that may help.
[[record]]
compound = "Cc1cn([C@H]2C[C@H](N=[N+]=[N-])[C@@H](CO)O2)c(=O)[nH]c1=O [ZIDOVUDINE]"
cat = 0

[[record]]
compound = "COc1cc(O)cc2c1-c1c(O)cc(O)cc1C2=O"
cat = 1

[[record]]
compound = "C/C=C/c1cc(OC)c(OC)cc1C(=O)c1cc(OC)c(OC)c(OC)c1 [GRAMNIPHENOL B]"
cat = 0

[[record]]
compound = "C=C(C)[C@H](O)COc1cc(OC)c2c(c1)C(=O)c1cc(O)cc(O)c1-2 [GRAMNIPHENOL E]"
cat = 0

[[record]]
compound = "COc1ccc2c(c1)C=C[C@@H](c1ccc(O)c(C(=O)CCO)c1OC)O2 [GRAMNIPHENOL C]"
cat = 0

[[record]]
compound = "COc1cc(O)cc2c1-c1c(O)ccc(O)c1C2=O"
cat = 0


Query :: Quick check: does CC1(C)C=Cc2cc3cc(-c4ccc(O)cc4)oc3cc2O1 [GRAMNIPHENOL F] have CC50 at 72 h under 90 µg/mL?
Result :: 0

Query :: Does this compound meet the criterion CC50 at 72 h < 90 µg/mL? C=C(C)[C@H](O)COc1cc(OC)c2c(c1)C(=O)c1c(O)ccc(O)c1-2 [GRAMNIPHENOL D]
Result :: 0

Query :: Lab note: CC50 at 72 h threshold 90 µg/mL. Does this compound come in strictly under it? COc1ccc(/C=C/Cc2ccc(O)c(OC)c2OC)cc1O [CANDENATENIN A]
Result :: 0

Query :: Determine if Oc1cc(O)cc(-c2cc3ccc(O)cc3o2)c1 [MORACIN M] shows CC50 at 72 h strictly lower than 90 µg/mL.
Result :: 1
